test system: SK-N-SH human neuroblastoma cells; assay: Serum Deprivation/JC-1 Mitochondrial Membrane Potential (MMP) Assay; format: cell-based; settings: Homo sapiens, SK-N-SH; percent maximal JC-1 ratio normalized to peak value for 10 μM dimebolin; read-out: JC-1 max %
reported-metric: Emax (%)

INSERT INTO assay_data (compound, quantitative_result) VALUES
  ('FC(F)(F)Oc1ccc(C#Cc2cccc3c4c([nH]c23)C2CCN(CC2)C4)cc1 [Example 20]', 47),
  ('c1ccc(COc2cccc3c4c([nH]c23)C2CCN(CC2)C4)cc1 [Example 26]', 494),
  ('Cc1ccc(/C=C/c2cccc3[nH]c4c(c23)CN2CCC4CC2)cn1 [Example 18]', 173),
  ('Cc1ccc(C#Cc2cccc3c4c([nH]c23)C2CCN(CC2)C4)cn1 [Example 3]', 188),
  ('C(=C\c1cccc2c3c([nH]c12)C1CCN(CC1)C3)/c1ccccc1 [Example 19]', 64),
  ('c1ccc(CCCCCc2cccc3c4c([nH]c23)C2CCN(CC2)C4)cc1 [Example 7]', 62),
  ('Cc1ccc(CCc2ccc3[nH]c4c(c3c2)CN2CCC4CC2)cn1 [Example 9]', 110),
  ('Cc1ccc(C#Cc2ccc3c4c([nH]c3c2)C2CCN(CC2)C4)cn1 [Example 22]', 185),
  ('C(=C\c1cccc2c3c([nH]c12)C1CCN(CC1)C3)/c1ccncc1 [Example 11]', 171),
  ('C(=C\c1cccc2c3c([nH]c12)C1CCN(CC1)C3)/c1cccnc1 [Example 34]', 109),
  ('c1ccc2ncc(-c3cccc4c5c([nH]c34)C3CCN(CC3)C5)cc2c1 [Example 41]', 171);

----------
Tested on: SK-N-SH human neuroblastoma cells
Test: Serum Deprivation/JC-1 Mitochondrial Membrane Potential (MMP) Assay
Type: cell-based
Conditions: Homo sapiens, SK-N-SH; percent maximal JC-1 ratio normalized to peak value for 10 μM dimebolin; read-out: JC-1 max %
Experimental: Tissue Culture: SK-N-SH human neuroblastoma cells obtained from American Type Culture Collection (Rockville, Md.) were maintained in the log phase of growth in Minimal Essential Media (MEM), 10% heat inactivated fetal calf serum and 100 units/mL antibiotic-antimycotic (AA). Cells were cultured and maintained in a humidified incubator at 37° C. under 5% CO2 and 95% air. Cells were trypsinized (0.25%) and subcultured every 3 days and used from 15-18 passages. […]
Here, each record is paired with measured Emax data.
reported-metric: Emax (%)

INSERT INTO measurements (compound, quantitative_result) VALUES
  ('C(=C\c1cccc2c3c([nH]c12)C1CCN(CC1)C3)/c1ccsc1', 67),
  ('c1cc(-c2ccncc2)c2[nH]c3c(c2c1)CN1CCC3CC1', 92),
  ('Cc1ccc(/C=C/c2cccc3c4c([nH]c23)C2CCN(CC2)C4)cn1', 139),
  ('Cc1ccc(/C=C/c2ccc3[nH]c4c(c3c2)CN2CCC4CC2)cn1', 162),
  ('Clc1ccc(/C=C/c2cccc3c4c([nH]c23)C2CCN(CC2)C4)cc1', 123),
  ('Cc1ccc(-c2cccc3c4c([nH]c23)C2CCN(CC2)C4)cn1', 179),
  ('Cc1ccc(C#Cc2cc(F)cc3c4c([nH]c23)C2CCN(CC2)C4)cn1', 156),
  ('C(=C\c1cccc2c3c([nH]c12)C1CCN(CC1)C3)/c1ccccn1', 192),
  ('C(=C/c1cccc2c3c([nH]c12)C1CCN(CC1)C3)/c1cncnc1 (single isomer, unassigned)', 29),
  ('Fc1cccc(CCc2cccc3c4c([nH]c23)C2CCN(CC2)C4)c1', 49),
  ('Fc1ccc(/C=C/c2cccc3c4c([nH]c23)C2CCN(CC2)C4)cc1', 84),
  ('c1cnc2ccc(-c3cccc4c5c([nH]c34)C3CCN(CC3)C5)cc2c1', 133),
  ('Fc1ccc(/C=C/c2cccc3c4c([nH]c23)C2CCN(CC2)C4)c(F)c1', 39),
  ('Cc1ccc(C#Cc2cccc3[nH]c4c(c23)CN2CCC4CC2)cn1', 140),
  ('Cc1ccc(/C=C/c2cc(F)cc3c4c([nH]c23)C2CCN(CC2)C4)cn1', 127),
  ('Cc1ccc(/C=C\c2cccc3c4c([nH]c23)C2CCN(CC2)C4)cn1', 120);
